- TESTED_TARGET: human GPR40 receptor (Homo sapiens (Human), UniProt O14842)
- Sequence (O14842 whole entry): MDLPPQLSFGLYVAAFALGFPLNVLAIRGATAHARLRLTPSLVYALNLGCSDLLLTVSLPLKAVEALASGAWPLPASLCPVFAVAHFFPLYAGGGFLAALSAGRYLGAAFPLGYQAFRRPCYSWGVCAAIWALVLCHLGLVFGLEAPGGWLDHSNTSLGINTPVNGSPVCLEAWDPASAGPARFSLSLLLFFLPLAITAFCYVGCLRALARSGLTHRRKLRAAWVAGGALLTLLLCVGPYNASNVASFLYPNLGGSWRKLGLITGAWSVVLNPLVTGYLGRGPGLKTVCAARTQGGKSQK
- TEST_DETAILS: IP1 accumulation measurements using the IPOne assay system
- RUN_CONDITIONS: 1321N1 cells stably expressing human GPR40 receptor, 1 h stimulation
Provide the recorded pEC50 for the entries that follow.
FYI, pEC50 means -log10 of a concentration in mol per litre.

## Input Report pEC50 for `O=C(O)C[C@@H]1COc2cc(O[C@@H]3CCc4c(Oc5ccc6c(c5)NC(=O)CC6)ccc(F)c43)ccc21`
## Output 8.00

## Input Kindly indicate its recorded pEC50. Item: `CCNC(=O)c1ccc(Oc2ccc(F)c3c2CC[C@H]3Oc2ccc3c(c2)OC[C@H]3CC(=O)O)cc1`
## Output 7.74

## Input Output pEC50 of `Cc1cc(OCCC(C)(C)O)cc(C)c1Oc1ccc(F)c2c1CC[C@H]2Oc1ccc2c(c1)OC[C@H]2CC(=O)O`
## Output 6.13

## Input // Input: `O=C(O)C[C@@H]1COc2cc(O[C@@H]3CCc4c(Oc5ccc(C(=O)N6CCCC6)cc5)ccc(F)c43)ccc21` . Output its pEC50 only.
## Output 7.74

## Input Identify pEC50 associated with the molecule `O=C(O)C[C@@H]1COc2cc(O[C@@H]3CCc4c(Oc5ccnc(O[C@H]6CCOC6)c5)ccc(F)c43)ccc21`
## Output 8.05

## Input Look up and state reported pEC50 for `N#Cc1cc(CN2CCOCC2)ccc1Oc1ccc(F)c2c1CC[C@H]2Oc1ccc2c(c1)OC[C@H]2CC(=O)O`
## Output 7.36

## Input In one line, give reported pEC50 of the entry `N#Cc1cc(Oc2ccc(F)c3c2CC[C@H]3Oc2ccc3c(c2)OC[C@H]3CC(=O)O)ccc1O[C@@H]1CCOC1` .
## Output 7.74
